- measurement.target: MCT2-embigin (Homo sapiens)
- Construct: gene SLC16A7; fusion: embigin C-terminus joined by GGSG linker to MCT2 N-terminus, C-terminal twin-Strep tag; HEK-293F, DDM then GDN, heterodimer; in transport tests expressed as fusion in HEK-293T cells; with Embigin
- Sequence (O60669 whole entry, the tested form may be a part): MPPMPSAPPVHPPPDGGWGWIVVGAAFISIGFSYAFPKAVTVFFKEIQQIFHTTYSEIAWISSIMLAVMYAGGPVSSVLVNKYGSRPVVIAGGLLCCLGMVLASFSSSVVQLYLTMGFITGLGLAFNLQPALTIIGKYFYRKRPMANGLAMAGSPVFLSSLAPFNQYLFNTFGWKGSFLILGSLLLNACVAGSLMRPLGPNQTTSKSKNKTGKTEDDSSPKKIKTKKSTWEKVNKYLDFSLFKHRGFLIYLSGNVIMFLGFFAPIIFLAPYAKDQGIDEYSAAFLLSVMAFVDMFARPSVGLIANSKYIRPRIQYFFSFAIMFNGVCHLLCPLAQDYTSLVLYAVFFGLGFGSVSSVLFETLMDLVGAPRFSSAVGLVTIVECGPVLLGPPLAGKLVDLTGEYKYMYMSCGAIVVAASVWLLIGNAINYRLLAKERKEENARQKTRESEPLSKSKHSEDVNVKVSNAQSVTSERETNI
- Sequence (Q6PCB8 33-327 partner): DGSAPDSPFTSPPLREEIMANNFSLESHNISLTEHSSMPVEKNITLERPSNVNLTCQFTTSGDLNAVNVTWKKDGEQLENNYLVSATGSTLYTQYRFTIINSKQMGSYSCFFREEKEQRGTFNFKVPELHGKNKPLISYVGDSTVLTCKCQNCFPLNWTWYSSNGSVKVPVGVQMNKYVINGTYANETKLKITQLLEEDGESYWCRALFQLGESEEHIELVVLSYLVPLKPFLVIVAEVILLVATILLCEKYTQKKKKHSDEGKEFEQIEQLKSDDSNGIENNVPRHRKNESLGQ
- test.method.notes: bio-layer interferometry, SSA biosensor, […] fit
metric.name: Kd (nM)
Numeric only. Scale: nM

Kd recorded for this compound, Cc1cc(Nc2ncnc3ccc(NC4=NC(C)(C)CO4)cc23)ccc1Oc1ccn2ncnc2c1 [Tucatinib] , is 600

# credit: paper PMC12894981
